- SUBJECT_OF_TEST: T1, anthrax protective antigen, wild type PA83 (Bacillus anthracis, UniProt P13423 30-764)
- T1 construct: mature
- ASSAY_METHOD_TEXT: dilution ELISA on PA-coated plates
OBSERVED_PROPERTY: EC50 (nM)
Numbers only; they are read as nM.

>>> measured("JHD-B6 (VHH) VHH: QVQLVESGGGLVQPGGSLRLSCAASGSSFSRYAMRWYRQAPGKQRELVANINSRGTSNYADSVKGRFTISRDNAKNTVYLQMNSLKPEDTAVYYCNAEWLGRSEPSWGQGTQVTVSS")
0.5

Task item: Please report the recorded EC50 for JKH-D12 (VHH) VHH: QVQLVETGGGLVQAGGTLRLSCAASGRTFTSYYIGWFRQEPGKEREFVASIGWTDDNTYYADSVKGRFTISRDNAETTAYLQMSGLKPEDTAVYYCAADYGSGIRAWYNWIYWGQGTQVTVSS .
Reply: 0.3

Data origin: patent US20210221874A1
